biological target: T1, WT (human, UniProt Q9NZQ7); experiment: ELISA on coated antigen, column WT
T1 construct: recombinant; also called hPD-L1; antigen PD-L1 wild type (WT)
T1 sequence (Q9NZQ7 19-238 limits assumed): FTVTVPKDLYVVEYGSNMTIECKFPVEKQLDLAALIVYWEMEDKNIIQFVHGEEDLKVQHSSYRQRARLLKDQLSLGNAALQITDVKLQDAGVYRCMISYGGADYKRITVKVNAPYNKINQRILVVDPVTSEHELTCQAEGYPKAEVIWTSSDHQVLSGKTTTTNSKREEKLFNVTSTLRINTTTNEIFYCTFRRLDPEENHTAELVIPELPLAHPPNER
Kindly supply the reported absorbance at 490 nm values for the records listed here.
Form field (numeric): enter value without unit.

Data point: PDL1-31B7 (antibody, V domains shown, Only FR/CDR pieces are tied to the clone) VH: QVQLVESGAEVKKPGSSVKVSCKASGGTFSSYAISWVRQAPGQGLEWMGRIIPILGIANYAQKFQGRVTITADKSTSTAYMELSSLRSEDTAVYYCARASSGYSVGAFDIWGQGTMVTVSS VL: QLVLTQPPSVSAPPGQKVTISCSGSSSNIGNNYVSWYQQLPGTAPKLLIYDNNERPSGIPDRFSASKSGTSATLGISGLQTGDEADYYCGTWDSSLSAGVFGGGTKLTVL ; absorbance at 490 nm = 2.5

Data point: PDL1-27F8 (antibody, V domains shown, Only FR/CDR pieces are tied to the clone) VH: QVQLVQSGAEVKKPGSSVKVSCKASGGTFSSSAFSWVRQAPGHGLEWMGRIIPMFDMTDYAQRFQGRLTIIADESSSTAYMELSSLRSEDTAVYYCARSNPHYMDVWGQGTTVTVSS VL: QLVLTQPPSVSGAPGQRVTISCTGSNSDIGAGHDVHWYQQIPGTAPKVLIYGNTDRPSGVPDRFSGSKSGTSASLAITGLQAEDEADYYCQSYDSSLSGYVFGTGTKVTVL ; absorbance at 490 nm = 2.9

Data point: PDL1-22B10 (antibody, V domains shown, Only FR/CDR pieces are tied to the clone) VH: QVQLVQSGAEVKKPGSSVKVSCRASGGTFSSYAISWVRQAPGQGLEWMGRIIPILGIANYAQKFQGRVTITADKSTSTAYMELSSLRSEDTAVYYCARDFVLSGSATVFDPWGQGTLVTVSS VL: QFVLTQPPSVSGAPGQRVTISCTGSSTNIGAGYDVHWYQQLPGKAPKVVIYGNSNRPSGVLDRFSASKSATSASLAITGLQAEDEADYYCQSYDSSLSGYVFGTGTKVTVL ; absorbance at 490 nm = 2.5

Data point: PDL1-23E10 (scFv, V domains shown) VH: QMQLVESGAEVKKPGSSVKVSCKVSGENFRSHAISWVRQAPGQGLEWMGRIIPIVGLADYPQKFQGRVTISADESTGTAYMDLSSLRSEDTAVYYCVTGRPPWHWGQGILITVSS VL: QLVLTQPPSVSGAPGQRVTISCTGSSSNIGAGYDVHWYQQLPGTAPKLLIYSNRNRPSGVPDRFSGSKSGTSASLAITGLQAEDEADYYCQSYDSSLSGPNYVFGTGTKVTVL ; absorbance at 490 nm = 2.2
